Entries and their measured koff follow.
Biological target: T1, Human SIRPαV2 (CAA71403.1), Extracellular Domain + His-Tag (human, UniProt P78324 31-373)
T1 construct: also called huSIRPαV2; hSIRPαV2; not shown: His-Tag
T1 sequence (P78324 other isoform, or with tags, fused parts or gaps): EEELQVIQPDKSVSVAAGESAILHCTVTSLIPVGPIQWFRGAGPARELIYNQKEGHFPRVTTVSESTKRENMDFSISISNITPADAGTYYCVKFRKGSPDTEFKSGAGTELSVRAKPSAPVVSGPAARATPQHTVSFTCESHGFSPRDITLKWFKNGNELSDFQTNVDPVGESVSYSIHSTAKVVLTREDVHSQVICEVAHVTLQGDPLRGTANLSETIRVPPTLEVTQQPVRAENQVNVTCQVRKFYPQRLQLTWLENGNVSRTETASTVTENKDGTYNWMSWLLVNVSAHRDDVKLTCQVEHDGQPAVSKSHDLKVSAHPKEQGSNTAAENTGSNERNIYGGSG
Assay: SPR, antibody captured on Protein A/G, ECD-His analyte, 1:1 fit
assay.endpoint: koff (s⁻¹)

binder	assay.endpoint	observed.result
Antibody A16 (antibody, human IgG1, kappa, L234A L235A, V domains shown) VH: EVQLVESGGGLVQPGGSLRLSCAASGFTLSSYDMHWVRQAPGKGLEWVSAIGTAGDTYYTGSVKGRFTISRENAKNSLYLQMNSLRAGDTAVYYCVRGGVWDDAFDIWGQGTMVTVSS VL: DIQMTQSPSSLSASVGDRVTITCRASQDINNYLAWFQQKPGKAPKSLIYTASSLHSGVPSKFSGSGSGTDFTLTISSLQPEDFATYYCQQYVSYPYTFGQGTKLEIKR	koff	0.0063
Antibody A5 (antibody, human IgG1, kappa, L234A L235A, V domains shown) VH: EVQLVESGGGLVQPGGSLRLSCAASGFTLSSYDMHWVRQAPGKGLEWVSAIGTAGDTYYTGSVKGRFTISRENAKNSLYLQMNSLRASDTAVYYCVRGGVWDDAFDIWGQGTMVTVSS VL: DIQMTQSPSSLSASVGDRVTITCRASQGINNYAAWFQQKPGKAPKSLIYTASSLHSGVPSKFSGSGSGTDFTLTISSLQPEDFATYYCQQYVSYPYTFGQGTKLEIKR	koff	0.0162
Antibody A6 (antibody, human IgG1, kappa, L234A L235A, V domains shown) VH: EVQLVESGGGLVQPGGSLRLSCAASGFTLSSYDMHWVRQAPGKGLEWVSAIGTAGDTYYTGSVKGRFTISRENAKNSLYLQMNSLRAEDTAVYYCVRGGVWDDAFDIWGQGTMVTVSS VL: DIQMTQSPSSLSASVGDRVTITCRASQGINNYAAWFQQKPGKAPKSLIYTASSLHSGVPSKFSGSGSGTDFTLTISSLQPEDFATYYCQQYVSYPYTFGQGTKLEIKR	koff	0.0171
